Tested Target: aromatase (Homo sapiens, UniProt P11511)
Experiment: biochemical
Assay type: biochemical
Set-up: Microsomes were obtained from human placentas after normal deliveries; from tissue; host or cells: human placenta, microsomes (washed twice, lyophilized)
Assay Setup: read-out: Ki (apparent)
pKi: −log10 of the molar value.
Recorded Endpoint: pKi

1. C[C@]12CCC(=O)C(O)=C1CC[C@@H]1[C@@H]2CC[C@]2(C)C(=O)CC[C@@H]12 [4-Hydroxy AD, 4-hydroxyandrostenedione]	7.39

###

Tested Target: aromatase (Homo sapiens)
Experiment: biochemical
Type: biochemical
Set-up: Microsomes were obtained from human placentas after normal deliveries; from tissue; host or cells: human placenta, microsomes (washed twice, lyophilized)
Assay Setup: Ki (apparent)
Experimental: Test A. Enzyme Affinity Assay Microsomes were obtained from human placentas after normal deliveries and prepared as described previously (Ryan, K. J. "Biological aromatization of steroids" J Biol. Chem. 1959, 234, 266-272). Following isolation of the microsomal pellets (washed twice), they were lyophilized and stored at -20° C.
pKi: −log10 of the molar value.
Recorded Endpoint: pKi

1) C#CC[C@]12CCC(=O)C=C1CC[C@@H]1[C@@H]2CC[C@]2(C)C(=O)CC[C@@H]12	7.57
2) C#CC[C@@H]1C[C@@H]2[C@H](CC[C@]3(C)C(=O)CC[C@@H]23)[C@H]2CCC(=O)C=C12	7.36

###

Tested Target: aromatase (Homo sapiens, UniProt P11511)
Experiment: biochemical
Format: biochemical
Set-up: Microsomes were obtained from human placentas after normal deliveries; from tissue; host or cells: human placenta, microsomes (washed twice, lyophilized)
Assay Setup: Table 1; human placental microsomes; read-out: IC50
pIC50: −log10 of the molar value.
Recorded Endpoint: pIC50

1. C[C@]12C=CC(=O)C=C1C=C[C@@H]1[C@@H]2CC[C@]2(C)C(=O)CC[C@@H]12 [1,4,6-ATD, androst-1,4,6-triene-3,17-dione]	6.05

###

Tested Target: aromatase (Homo sapiens, UniProt P11511)
Sequence (P11511 1-503): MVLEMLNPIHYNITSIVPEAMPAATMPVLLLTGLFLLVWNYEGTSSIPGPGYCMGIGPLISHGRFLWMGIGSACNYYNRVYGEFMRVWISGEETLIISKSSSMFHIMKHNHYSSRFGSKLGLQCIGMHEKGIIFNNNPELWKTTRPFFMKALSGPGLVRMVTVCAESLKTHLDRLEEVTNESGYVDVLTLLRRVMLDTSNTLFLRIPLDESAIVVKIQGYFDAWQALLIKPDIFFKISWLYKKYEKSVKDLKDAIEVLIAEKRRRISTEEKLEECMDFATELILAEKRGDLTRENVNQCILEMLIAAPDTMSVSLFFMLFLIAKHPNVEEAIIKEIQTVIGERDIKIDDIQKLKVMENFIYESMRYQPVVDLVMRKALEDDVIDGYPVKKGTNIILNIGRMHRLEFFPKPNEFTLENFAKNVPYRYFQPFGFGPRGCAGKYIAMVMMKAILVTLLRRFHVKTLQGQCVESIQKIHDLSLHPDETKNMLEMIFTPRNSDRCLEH
Experiment: biochemical
Format: biochemical
Design: Microsomes were obtained from human placentas after normal deliveries; from tissue; host or cells: human placenta, microsomes (washed twice, lyophilized)
Assay Setup: Table 1; apparent Ki; read-out: Ki (apparent)
Description: Test A. Enzyme Affinity Assay Microsomes were obtained from human placentas after normal deliveries and prepared as described previously (Ryan, K. J. "Biological aromatization of steroids" J Biol. Chem. 1959, 234, 266-272). Following isolation of the microsomal pellets (washed twice), they were lyophilized and stored at -20° C.
pKi: −log10 of the molar value.
Recorded Endpoint: pKi

1. C[C@]12C=CC(=O)C=C1C=C[C@@H]1[C@@H]2CC[C@]2(C)C(=O)CC[C@@H]12	6.86

###

Some compounds, each annotated with its measured pIC50.
Tested Target: aromatase (Homo sapiens, UniProt P11511)
Experiment: biochemical
Assay type: biochemical
Design: Microsomes were obtained from human placentas after normal deliveries; from tissue; host or cells: human placenta, microsomes (washed twice, lyophilized)
Assay Setup: IC50
pIC50: −log10 of the molar value.
Recorded Endpoint: pIC50

1. C#CC[C@]12CCC(=O)C=C1CC[C@@H]1[C@@H]2CC[C@]2(C)C(=O)CC[C@@H]12	7.38
2. C#CC[C@H]1C[C@@H]2[C@H](CC[C@]3(C)C(=O)CC[C@@H]23)[C@H]2CCC(=O)C=C12	6.37
3. C[C@]12CCC(=O)C(O)=C1CC[C@@H]1[C@@H]2CC[C@]2(C)C(=O)CC[C@@H]12 [4-Hydroxy AD, 4-hydroxyandrostenedione]	6.60
4. C#CC[C@@H]1C[C@@H]2[C@H](CC[C@]3(C)C(=O)CC[C@@H]23)[C@H]2CCC(=O)C=C12	7.01

Attribution: patent US5866558A
